Value source: PubChem BioAssay AID1159577

- Assay notes: HepG2 cell cytotoxicity, dose response, cytotoxicity control, cherry-picked samples (AID 1159577)
- Measurement setup: HepG2 cytotoxicity counterscreen, plate reader; series mostly up to 19.5 µM
The campaign covered roughly 1,300 compounds. About 240 (18%) were called active. Not shown: some 8% with an inconclusive outcome. The list is a sample of the results. Potency and affinity values are given separately.
Property label: outcome

- CN(C)c1ccc2c(c1)[C@@H]1C[C@@H](CC(=O)N3CCc4ccccc4C3)O[C@@H](CO)[C@@H]1O2: inactive
- COc1ccc2c3c([nH]c2c1)[C@H](CO)N(C(=O)C1CCOCC1)CC31CCN(Cc2nccs2)CC1: inactive
- CC(=O)N1CC[C@@H]2[C@@H](CO)Nc3ccc(C#Cc4ccccc4F)cc3[C@@H]21: inactive
- COc1ccc2c3c([nH]c2c1)[C@@H](CO)N(Cc1cc(F)ccc1F)CC31CCN(C(=O)C2CCC2)CC1: inactive
- COc1ccc(CNC(=O)C[C@H]2C=C[C@@H](NS(=O)(=O)c3cccc(OC)c3)[C@@H](CO)O2)cc1: inactive
- COc1ccc2c3c([nH]c2c1)[C@H](CO)N(C(=O)Nc1ccc(F)cc1)CC31CCN(S(=O)(=O)c2cccc(F)c2)CC1: inactive
- CC(C)C#Cc1ccc([C@@H]2[C@@H](CO)N3C(=O)CN(C(=O)C4CCCCC4)C[C@@H]23)cc1: inactive
- C[C@@H]1CN([C@H](C)CO)C(=O)c2cccc(NS(=O)(=O)c3cccs3)c2O[C@H]1CN(C)Cc1ccc(C(F)(F)F)cc1: inactive

---

- Assay notes: HepG2 cell cytotoxicity, dose response, cytotoxicity control, cherry-picked samples (AID 1159577)
- Measurement setup: HepG2 cytotoxicity counterscreen, plate reader; series mostly up to 19.5 µM
About 240 (18%) of roughly 1,300 compounds were called active. Not shown: some 8% with an inconclusive outcome. Only a sample is shown. Results with a measured potency or affinity are listed apart.
Property label: outcome

- O=C(c1ccccc1)N1CC[C@@H]2[C@@H](CO)Nc3ccc(-c4ccc(F)cc4)cc3[C@@H]21: inactive
- C/C=C/c1ccccc1[C@@H]1[C@@H](CO)N(S(=O)(=O)c2cccc(F)c2)[C@H]1C#N: inactive
- COc1ccc(NC(=O)N(C)C[C@@H]2Oc3cc(-c4ccc(C)cc4)ccc3S(=O)(=O)N([C@H](C)CO)C[C@@H]2C)cc1: inactive
- COc1cccc(CN(C)C[C@H]2OCc3ccccc3-c3c(n(C)c4ccccc34)C(=O)N([C@H](C)CO)C[C@@H]2C)c1: inactive
- O=C(C[C@H]1C=C[C@H](NC(=O)Cc2ccccn2)[C@H](CO)O1)NCCc1ccccc1: inactive
- COc1ccc(S(=O)(=O)N(C)C[C@@H]2Oc3cc(-c4ccccc4OC)ccc3S(=O)(=O)N([C@H](C)CO)C[C@H]2C)cc1: inactive
- C[C@H](CO)N1C[C@H](C)[C@@H](CN(C)C(=O)Nc2ccc(-c3ccccc3)cc2)OCc2ccccc2-c2c(n(C)c3ccccc23)C1=O: inactive
- C[C@H](CO)N1C[C@H](C)[C@@H](CN(C)Cc2ccc(Oc3ccccc3)cc2)OCc2ccccc2-c2c(n(C)c3ccccc23)C1=O: inactive
- C/C=C/c1ccc([C@H]2[C@@H](C#N)N(C(=O)NC3CCCC3)[C@@H]2CO)cc1: inactive
- COc1cccc(-c2cn(CC[C@@H]3CC[C@@H](NS(=O)(=O)c4ccccc4Cl)[C@H](CO)O3)nn2)c1: inactive
- COc1ccccc1S(=O)(=O)N(C)C[C@@H]1OCc2ccccc2-c2c(n(C)c3ccccc23)C(=O)N([C@@H](C)CO)C[C@@H]1C: inactive
- C/C=C/c1ccc([C@H]2[C@@H](CO)N(CC3CCCCC3)[C@@H]2CNC(C)C)cc1: inactive
- OC[C@H]1CC[C@@H]2O[C@H](CCc3ccc(C#CCc4ccccc4)cc3)[C@@H](n3cc(-c4ccccc4)nn3)C[C@@H]2O1: inactive
- CC(C)(C)[S@@](=O)N1Cc2cc(C(=O)NC3CCC3)nc(-c3cccc(Br)c3)c2[C@H]1CCO: inactive
- C/C=C/c1ccc([C@H]2[C@@H](CO)N(C(=O)CC)[C@@H]2CNCC2CCCCC2)cc1: inactive
- CCc1csc(N2[C@H](C#N)[C@H](c3ccccc3-c3ccc(F)cc3)[C@H]2CO)n1: inactive

---

- Assay notes: HepG2 cell cytotoxicity, dose response, cytotoxicity control, cherry-picked samples (AID 1159577)
- Measurement setup: HepG2 cytotoxicity counterscreen, plate reader; series mostly up to 19.5 µM
The campaign covered roughly 1,300 compounds. About 240 (18%) were called active. Roughly 8% stayed inconclusive and do not appear here. These entries were drawn from the full list. Measured potencies and affinities stand elsewhere.
Property label: outcome

* COc1ccc(CN2C[C@H](C)[C@@H](OC)CN(C)C(=O)c3cc(NC(=O)c4nc5ccccc5s4)ccc3OC[C@@H]2C)cc1 | inactive
* O=C(Nc1ccc(F)cc1)N1CCCCN2[C@H](C1)[C@H](c1ccc(C#Cc3ccccc3)cc1)[C@@H]2CO | inactive
* CC(C)(C)S(=O)N1Cc2cc(C(=O)N[C@@H]3CCN(Cc4ccccc4)C3)nc(-c3cccc(C#CCC4CCCC4)c3)c2[C@H]1CCO (stereo not given in full) | inactive
* COc1ccc(S(=O)(=O)Nc2ccc3c(c2)CC(=O)N([C@H](C)CO)C[C@H](C)[C@H](CN(C)S(=O)(=O)c2ccc(C)cc2)O3)cc1 | inactive
* O=C(C[C@H]1C=C[C@@H](NC(=O)Nc2ccccc2F)[C@H](CO)O1)NCc1ccc(-c2ccccc2)cc1 | inactive
* CO[C@@H]1CN(C)C(=O)c2cc(NC(=O)c3ccccc3F)ccc2OC[C@H](C)N(C(=O)c2ccccc2F)C[C@@H]1C | inactive
* COc1ccccc1NC(=O)N1CCCCN2[C@@H](CO)[C@H](c3ccc(C#CC4CC4)cc3)[C@@H]2C1 | inactive
* COc1ccc2c3c([nH]c2c1)[C@H](CO)N(Cc1ccncc1)CC31CN(Cc2ccc(-c3ccccn3)cc2)C1 | inactive
* CN1CCN(C(=O)C[C@H]2C[C@@H]3c4cc(NC(=O)Nc5ccc(C(F)(F)F)cc5)ccc4O[C@@H]3[C@@H](CO)O2)CC1 | inactive
* COc1cccc(NC(=O)N(C)C[C@@H]2Oc3cc(C#Cc4ccccc4)ccc3S(=O)(=O)N([C@H](C)CO)C[C@@H]2C)c1 | inactive
* COc1ccc2c3c([nH]c2c1)[C@H](CO)N(Cc1ccccc1)CC31CCN(CC2CC2)CC1 | inactive
* COc1ccccc1-c1ccccc1[C@@H]1[C@@H](C#N)N(C(=O)C2CC2)[C@@H]1CO | inactive
* COc1cccc(CN2CC3(CCN(Cc4ccccn4)CC3)c3c([nH]c4cc(OC)ccc34)[C@@H]2CO)c1 | inactive
* Cc1ccccc1S(=O)(=O)N(C)C[C@@H]1OCc2ccccc2-c2c(n(C)c3ccccc23)C(=O)N([C@@H](C)CO)C[C@@H]1C | inactive
* COc1ccc2c3c([nH]c2c1)[C@H](CO)N(Cc1ccccc1F)CC31CN(C(=O)C2CCC2)C1 | inactive
